# Test system: U251 CNS
# Assay remarks: NCI tumour cell line growth inhibition, 48 h
Value type: TGI

Compound: O=C(NO)c1ccc([N+](=O)[O-])cc1
Assayed target: U251 CNS
TGI: > 100 µM
//
Compound: CC1=NC(=O)C(C)(c2ccccc2)N1CCc1ccccc1 (stereo not drawn)
Assayed target: U251 CNS
TGI: > 100 µM
//
Compound: CCN1C(=O)N(CC)C2C1NN=c1s/c(=C3\C(=O)N(C(C)C)c4ccccc43)c(=O)n12 (stereo not drawn)
Assayed target: U251 CNS
TGI: > 57.7 µM

Query CCOC(=O)C(c1c[nH]c2ccccc12)(c1c[nH]c2ccccc12)c1c[nH]c2ccccc12 yields TGI of > 100 µM

Item: CC1C2CC(CC(=O)N2)C1(C)C (stereo not drawn) | TGI: > 100 µM

Recorded TGI (compound N#CSc1ncnc2nc[nH]c12 ): > 100 µM

// CCCC(O)[C@@H](O)c1ccc2c(c1O)C(=O)c1c(OC)cccc1C2=O (stereo partly drawn) : TGI value = > 100 µM

Lab note: measured TGI of O=C(O)c1c[nH]c2c(Sc3ccccc3)nccc2c1=O was > 100 µM

The compound Fc1ccc(-c2nc3n(c2-c2ccncc2)CCS3)cc1 showed TGI equal to > 25 µM

For this compound ( CC1=C/C(=N\OCC(=O)O)CC(c2ccc(C(C)C)cc2)C1 (stereo not drawn) ), measured TGI is > 100 µM

Input O=C1c2ccccc2C(=O)N1CC1(C(=O)O)NCCS1(=O)=O (stereo not drawn) . Output TGI: > 100 µM

----------
# Test system: SF-295 CNS
# Assay remarks: NCI tumour cell line growth inhibition, 48 h; in the data active = GI50 below about 0.43 µM; inactive = the rest
Write down the outcome that applies. Available outcomes: 1 = active, 0 = inactive

Illustrative cases are given below, each with its answer.
Compound: CN(C)CCNC(=O)c1cccn2c(=O)c3cc4ccccc4cc3nc12
Label class: 1

Compound: CSc1nnc(CCSc2ccnc3c(C(F)(F)F)cccc23)o1
Label class: 0

Compound: CCC[CH2][Sn]([CH2]CCC)([O]C(C)=O)[O]C(C)=O
Label class: 0

Compound: N#CC(C#N)=CN1CCN(C(=O)c2ccco2)C1=S
Label class: 0

Compound: O=C1C(Cl)=C(N/N=c2/[nH][nH]/c(=N/NC3=C(Cl)C(=O)c4ccccc4C3=O)c3ccccc23)C(=O)c2ccccc21
Label class: 0

Compound: CCCN1C(=O)/C(=c2\sc3n(c2=O)C2C(NN=3)N(CC)C(=O)N2CC)c2ccccc21 (stereo not given)
Label class: 1

Compound: COc1cc2c(cc1OC)-c1ccc3cc4c(cc3c1N(CCN1CCCC1)C2)OCO4
Label class: 0

Compound: CCN(CC)c1ccc(/C=C/c2cc(C)c3ccccc3n2)cc1
Label class: 0

Compound: Fc1ccc(-c2nc3n(c2-c2ccncc2)CCS3)cc1
Label class: 0

Compound: Nc1nc(/C=C\c2ccc([N+](=O)[O-])o2)nc(N2CCN(c3ccccc3)CC2)n1
Label class: 0

What classification did CCOC(=O)c1c2c(n(CC(C)C)c1C)-c1nc[nH]c1C(=O)C2=O end up with in this test?
0

Returns: the outcome recorded for CCN=C1C=CC(=C(c2ccc(N(C)C)cc2)c2ccc(N(C)C)cc2)c2ccccc21 in this assay.
1

----------
# System: HOP-62 NSCLC
# Assay remarks: NCI tumour cell line growth inhibition, 48 h; in the data active = GI50 below about 0.43 µM; inactive = the rest
Please state which outcome applies, choosing from active, inactive

Compound: CCN(CC)CCOc1ccc(C(=C(C)c2ccc(Cl)cc2)c2ccc(OCCN(CC)CC)cc2)cc1
Label class: inactive
//
Compound: N#CSc1ncnc2nc[nH]c12
Label class: inactive
//
Compound: C=C(C)[C@@H]1CC=C(CO)CC1
Label class: inactive

// outcome(item) with item = CC[C@H](Nc1nc(N)nc(C)c1C#N)c1nc2cccc(CN(C)c3ncc(C(=O)NO)cn3)c2c(=O)n1-c1ccccc1
inactive

Entry CC1(C)CCC2(C(=O)OC3OC(CO)C(O)C(O)C3O)CC[C@]3(C)C(=CCC4C5(C)CC[C@H](OC6OC(C(=O)O)C(O)C(O)C6O)C(C)(C)C5CCC43C)C2C1 (stereo partly drawn) : call = ?
inactive

Field: outcome | Entry: CC(C)(O)c1ccc(N2CCN(c3nnc(Cc4ccccc4)c4ccccc34)CC2)nc1
inactive

Any idea what this test logged for CCN(CC)c1ccc(/C=C/c2cc(C)c3ccccc3n2)cc1 ?
inactive

Returns: the outcome recorded for CC12CCC(=O)C(O1)C1C(=O)c3cc4ccccc4cc3C(=O)C12 (stereo not drawn) in this assay.
inactive

Check the results log: what was the call for CC[C@](C)(O)C(=O)O[C@H]1C(=O)O[C@@H]2C[C@H]3C(C)=CC(=O)[C@@H](O)[C@]3(C)[C@H]3[C@@]4(O)OC[C@]32[C@@H]1[C@@H](C)[C@H]4O ?
active

Outcome logged for CCc1ccc(NC(=O)Nc2c[nH]c3ccccc23)cc1 in this assay:
inactive

Data origin, for the record: PubChem BioAssay (NCI)
